The following compounds are listed with their measured RM (membrane retention) values.
- EXPERIMENT_NOTES: skin-PAMPA permeability assay (gradient-pH, UPLC-DAD)
- PROTOCOL_CONDITIONS: mole fraction; with stirring, 4 h incubation; neutral form
PARAMETER: RM (membrane retention)

- COC1=CC(=O)C[C@@H](C)[C@]12Oc1c(Cl)c(OC)cc(OC)c1C2=O: 0.19(±0.01)
- O=c1[nH]cc(F)c(=O)[nH]1: 0.04(±0.04)
- C[C@H]1O[C@@H](O[C@H]2[C@@H](O)C[C@H](O[C@H]3[C@@H](O)C[C@H](O[C@H]4CC[C@@]5(C)[C@H](CC[C@@H]6[C@@H]5CC[C@]5(C)[C@@H](C7=CC(=O)OC7)CC[C@]65O)C4)O[C@@H]3C)O[C@@H]2C)C[C@H](O)[C@@H]1O: 0.22(±0.04)
- CC(C)Cc1ccc(C(C)C(=O)O)cc1 (stereo not drawn): 0.00
- CC(=O)[C@H]1CC[C@H]2[C@@H]3CCC4=CC(=O)CC[C@]4(C)[C@H]3CC[C@]12C: 0.74(±0.01)
- CC(C(=O)O)c1ccc(-c2ccccc2)c(F)c1 (stereo not drawn): 0.00
